Biological target: human cathepsin L (Homo sapiens, UniProt P07711)
Construct: made in house
Sequence (P07711 114-333): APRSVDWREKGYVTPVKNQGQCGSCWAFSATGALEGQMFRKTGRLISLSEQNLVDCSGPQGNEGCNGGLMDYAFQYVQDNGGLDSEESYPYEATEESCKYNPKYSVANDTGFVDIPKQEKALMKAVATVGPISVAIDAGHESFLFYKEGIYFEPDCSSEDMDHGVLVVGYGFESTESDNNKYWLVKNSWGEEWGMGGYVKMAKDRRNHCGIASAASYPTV
Test: human cathepsin L inhibitory action
Format: biochemical
Settings: recombinant human cathepsin L, substrate Z-Phe-Arg-NMec, pH 5.5, 30° C., 10 minutes
assay endpoint: IC50 (µM)

>>> df
                                    molecule  recorded_number
 0  CC(C)(C)OC(=O)N[C@@H](Cc1ccccc1)C(=O)N[C@H]1CCOC1O (some centres unmarked)             0.03
 1  CC(=O)O[C@@H]1OCC[C@@H]1NC(=O)[C@H](CC(C)C)NC(=O)c1cccnc1             0.87
 2  O=C(COc1ccccc1)N[C@@H](Cc1ccccc1)C(=O)N[C@H]1CCOC1O (some centres unmarked)           0.0094
 3  CC(C)[C@H](NC(=O)OCc1ccccc1)C(=O)N[C@H]1CCOC1O (some centres unmarked)             0.03
 4  CC(=O)OC1OCC[C@@H]1NC(=O)[C@@H](NC(=O)OCc1ccccc1)C(C)C (some centres unmarked)             0.45
 5  CC(C)C[C@H](NC(=O)Nc1cccc2ccccc12)C(=O)N[C@H]1CCOC1O (some centres unmarked)           0.0069
 6  O=C(N[C@@H](Cc1ccccc1)C(=O)N[C@H]1CCOC1O)OCc1ccccc1 (some centres unmarked)            0.008
 7  COC1OCC[C@@H]1NC(=O)[C@H](CC(C)C)NC(=O)Nc1cccc2ccccc12 (some centres unmarked)             0.19
 8  O=C(N[C@@H](Cc1ccccc1)C(=O)N[C@H]1CCCOC1O)OCc1ccccc1 (some centres unmarked)            0.028
 9  CCOP(=O)(Cc1ccc(C(=O)N[C@@H](CC(C)C)C(=O)N[C@H]2CCOC2O)cc1)OCC (some centres unmarked)            0.029
10  CC(=O)O[C@@H]1OCC[C@@H]1NC(=O)[C@H](CC(C)C)NC(=O)c1ccccn1             0.69
11  CC(C)C[C@H](NC(=O)OCc1ccccc1)C(=O)N[C@@H](CC(C)C)C(=O)N[C@H]1CCCOC1O (some centres unmarked)            0.052
12  CCCC(CCC)C(=O)N[C@H](C(=O)N[C@H]1CCOC1O)C(C)C (some centres unmarked)            0.032
13  CC[C@H](C)[C@H](NS(=O)(=O)c1cccc2ccccc12)C(=O)N[C@H]1CCOC1O (some centres unmarked)            0.057
